Source: patent US11795460B2

System: TTR
assay-protocol: TTR editing in primary human hepatocytes transfected with Spy Cas9 protein and sgRNAs (Table 12)
Type: cell-based
experimental-conditions: primary human hepatocytes transfected with Spy Cas9 protein (RNP) and sgRNAs
Strand notation (5' to 3'): a small letter for the sugar, then the base; units joined by * are phosphorothioate-linked, units joined directly phosphodiester-linked; [ ] holds rarer units or linkages, { } end groups; capitals alone tell only the bases. m = 2'-O-methyl; r = 2'-OH (RNA)
# Avg % Insert >= 40% gives 1, anything below gives 0

Check out these entries, answers already filled in.
molecule	assigned-label
G000488: TTR sgRNA modified sequence, Human, SEQ ID No. 95; guide sequence of CR003346 (nucleic acid) guide: mA*mA*mA*rGrUrUrCrUrArGrArUrGrCrUrGrUrCrCrGrGrUrUrUrUrArGrAmGmCmUmAmGmAmAmAmUmAmGmCrArArGrUrUrArArArArUrArArGrGrCrUrArGrUrCrCrGrUrUrArUrCrAmAmCmUmUmGmAmAmAmAmAmGmUmGmGmCmAmCmCmGmAmGmUmCmGmGmUmGmCmU*mU*mU*mU	0
G000485: TTR sgRNA modified sequence, Human, SEQ ID No. 92; guide sequence of CR003336 (nucleic acid) guide: mC*mC*mU*rCrCrUrCrUrGrCrCrUrUrGrCrUrGrGrArCrGrUrUrUrUrArGrAmGmCmUmAmGmAmAmAmUmAmGmCrArArGrUrUrArArArArUrArArGrGrCrUrArGrUrCrCrGrUrUrArUrCrAmAmCmUmUmGmAmAmAmAmAmGmUmGmGmCmAmCmCmGmAmGmUmCmGmGmUmGmCmU*mU*mU*mU	1
G000496: TTR sgRNA modified sequence, Human, SEQ ID No. 103; guide sequence of CR005304 (nucleic acid) guide: mG*mG*mC*rCrGrUrGrCrArUrGrUrGrUrUrCrArGrArArGrUrUrUrUrArGrAmGmCmUmAmGmAmAmAmUmAmGmCrArArGrUrUrArArArArUrArArGrGrCrUrArGrUrCrCrGrUrUrArUrCrAmAmCmUmUmGmAmAmAmAmAmGmUmGmGmCmAmCmCmGmAmGmUmCmGmGmUmGmCmU*mU*mU*mU	1
G000500: TTR sgRNA modified sequence, Human, SEQ ID No. 107; guide sequence of CR003337 (nucleic acid) guide: mC*mC*mA*rGrUrCrCrArGrCrArArGrGrCrArGrArGrGrGrUrUrUrUrArGrAmGmCmUmAmGmAmAmAmUmAmGmCrArArGrUrUrArArArArUrArArGrGrCrUrArGrUrCrCrGrUrUrArUrCrAmAmCmUmUmGmAmAmAmAmAmGmUmGmGmCmAmCmCmGmAmGmUmCmGmGmUmGmCmU*mU*mU*mU	1

Next item in the queue.
Given G000481: TTR sgRNA modified sequence, Human, SEQ ID No. 88; guide sequence of CR003345 (nucleic acid) guide: mU*mC*mU*rArGrArArCrUrUrUrGrArCrCrArUrCrArGrGrUrUrUrUrArGrAmGmCmUmAmGmAmAmAmUmAmGmCrArArGrUrUrArArArArUrArArGrGrCrUrArGrUrCrCrGrUrUrArUrCrAmAmCmUmUmGmAmAmAmAmAmGmUmGmGmCmAmCmCmGmAmGmUmCmGmGmUmGmCmU*mU*mU*mU , state whether its Avg % Insert is at least 40%.
0
